test system: rodent lifetime carcinogenesis bioassay, tumor incidence TD50; experiment: carcinogenic potency in animals, long-term in vivo studies, CPDB compilation (AID 1745844); settings: mouse; strain B6C3F1; females; inhaled; site: lung; lesion: alveolar/bronchiolar adenoma + alveolar/bronchiolar carcinoma; dosed 105 weeks; study length 105 weeks

{"columns": ["substance-smiles", "unit-info", "TD50"],
 "data": [
  ["O=[O+][O-]", "mg/kg/day", 1.88],
  ["[O]=[Mo](=[O])=[O]", "mg/kg/day", 68.3]
]}

---

system: rodent lifetime carcinogenesis bioassay, tumor incidence TD50; assay: carcinogenic potency in animals, long-term in vivo studies, CPDB compilation (AID 1745844); details: rat; strain Wistar; males; inhaled; site: liver; lesion: hepatoma; dosed 52 weeks; study length 125 weeks
assay-metric: TD50

{"columns": ["substance-smiles", "tested-system", "recorded-measurement"],
 "data": [
  ["C=CCl", "rodent lifetime carcinogenesis bioassay, tumor incidence TD50", "4860 mg/kg/day"]
]}
